study system: Sigma-2 receptor (Rattus norvegicus, UniProt Q5U3Y7)
Construct: endogenous in cells
Sequence (Q5U3Y7 1-176): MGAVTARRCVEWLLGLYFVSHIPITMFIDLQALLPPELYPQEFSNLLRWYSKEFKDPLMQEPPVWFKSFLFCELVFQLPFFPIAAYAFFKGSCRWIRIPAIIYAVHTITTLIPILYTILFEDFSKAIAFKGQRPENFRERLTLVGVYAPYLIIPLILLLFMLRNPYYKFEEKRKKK
experiment: NIMH-PDSP receptor binding, Sigma-2 (radioligand DTG, PC12)
assay metric: Ki (nM)
Give bare numbers, in nM.

For orientation, consider the following solved cases.
Fc1ccc(C2(NCCCOC3CCCCO3)CC3CCC2C3)cc1 (racemic)    5.5
Fc1ccc(C2(NCCCN3CCCCC3)CC3CCC2C3)cc1 (racemic)    16

Please turn your attention to the following entry.
Reported Ki, molecule c1ccc(C2(NCCCN3CCCCC3)CC3CCC2C3)cc1 (racemic) : ____ 9.6

###

Target or system Sigma-1 receptor (Rattus norvegicus, UniProt Q9R0C9): recorded Ki listed per item.

Fc1ccc(C2(NCCCN3CCCCC3)CC3CCC2C3)cc1 (racemic) [Compound 5b]    > 10 µM
c1ccc(C2(NCCCN3CCCCC3)CC3CCC2C3)cc1 (racemic) [Compound 5a]    > 10 µM

Please turn your attention to the following entry.
Reported Ki, compound Fc1ccc(C2(NCCCOC3CCCCO3)CC3CCC2C3)cc1 (racemic) [Compound 5c] : ____ > 10 µM
